- SYSTEM_NAME: MTHFD2 recombinant human enzyme (Homo sapiens)
- Sequence (P13995 36-350): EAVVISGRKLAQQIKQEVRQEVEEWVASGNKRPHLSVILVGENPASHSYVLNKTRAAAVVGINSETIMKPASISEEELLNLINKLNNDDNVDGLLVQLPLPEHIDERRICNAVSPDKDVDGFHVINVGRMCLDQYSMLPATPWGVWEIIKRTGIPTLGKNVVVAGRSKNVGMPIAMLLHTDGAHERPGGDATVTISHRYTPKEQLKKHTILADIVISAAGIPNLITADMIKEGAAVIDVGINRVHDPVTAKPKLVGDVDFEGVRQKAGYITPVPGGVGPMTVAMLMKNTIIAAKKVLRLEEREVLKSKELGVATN
- TEST_DETAILS: MTHFD2 inhibition assay (NAD(P)H-Glo luminescence)
- COND: selectivity of MTHFD2 inhibition over MTHFD1, band
MEASUREMENT_TYPE: MTHFD1/MTHFD2 IC50 ratio

COC[C@H]1CN(c2cc(Cl)c3c4c(c(=O)oc3c2C)CN(C(=O)c2cc(N(C)C)c(C(=O)NS(=O)(=O)N3CCC5(COC5)C3)cc2F)CC4)CCN1C; H (>9.0 to 30)
COC[C@H]1CN(c2cc(C)c3c4c(c(=O)oc3c2C)CN(C(=O)c2ccc(C(=O)NS(=O)(=O)N(C)C)c(N3CC5CCC3C5)c2)CC4)CCN1C (stereo partly drawn); F (<3)
CCOc1cc(C(=O)N2CCc3c(c(=O)oc4c(C)c(N5CCN(C)[C@@H](COC)C5)cc(C)c34)C2)c(F)cc1C(=O)NS(=O)(=O)N1C[C@@H]2C[C@H]1CO2; J (>30)
COC[C@H]1CN(c2cc(C)c3c4c(c(=O)oc3c2C)CN(C(=O)c2ccc(C(=O)NS(=O)(=O)C3(C)CC3)c(N3CCC[C@@H]3C)c2)CC4)CCN1C; F (<3)
COC[C@H]1CN(c2cc(C)c3c4c(c(=O)oc3c2C)CN(C(=O)c2ccc(C(=O)NS(=O)(=O)N3CCCC3)c(N3C5CCC3CC5)c2F)CC4)CCN1C; F (<3)
COC[C@H]1CN(c2cc(C)c3c4c(c(=O)oc3c2C)CN(C(=O)c2cc(OC3CCC3)cc(C(=O)NS(=O)(=O)N3CCCC3)c2)CC4)CCN1C; H (>9.0 to 30)
COC[C@H]1CN(c2cc(C)c3c4c(c(=O)oc3c2C)CN(C(=O)c2ccc(C(=O)NS(=O)(=O)N3CCCC3)c(N(C)C3CCC3)c2)CC4)CCN1C; H (>9.0 to 30)

Next item in the queue.
Qu. What does the data say about its MTHFD1/MTHFD2 IC50 ratio? Entry: `COC[C@H]1CN(c2cc(C)c3c4c(c(=O)oc3c2C)CN(C(=O)c2ccc(C(=O)NS(=O)(=O)N3C[C@H]5CCC[C@H]5C3)cc2)CC4)CCN1C`
Ans. J (>30)
